System: Vero E6
PROTOCOL_SUMMARY: cell viability relative to DMSO; higher = less toxic
CONDITION_SUMMARY: 72 h; 1000 nM
Quick reference for cell viability among some molecules

O=C(CCN1CCN(C(=O)OCc2cc(Cl)cc(Cl)c2)CC1)c1ccc2[nH]c(=O)oc2c1 [PF-8380] = 103%

Now examine the next entry.
Lab note: COC(=O)C1=C(C)NC(C)=C(C(=O)OCCN(C)Cc2ccccc2)C1c1cccc([N+](=O)[O-])c1 (centres undefined) [nicardipine] gave cell viability of 103%

###

System: Calu-3
PROTOCOL_SUMMARY: cell viability relative to DMSO; higher = less toxic
CONDITION_SUMMARY: 72 h; 1000 nM
Quick reference for cell viability among some molecules
Report only the number, with the unit % understood.

Cc1oc(-c2ccccc2)nc1CCC(=O)c1ccc(CC2SC(=O)NC2=O)cc1 (centres undefined) = 111
O=C(NCCN1CCC2(CC1)C(=O)NCN2c1cccc(F)c1)c1ccc(F)c(F)c1 = 93.9
C[C@@H]1NC(=O)[C@@H]2CCCN2C(=O)[C@H](CC(N)=O)NC(=O)[C@@H]2CSSC[C@H](N)C(=O)N[C@H]3CSSC[C@H](NC1=O)C(=O)N[C@@H]([C@@H](C)O)C(=O)NCC(=O)N[C@H](C(=O)N[C@@H](Cc1ccc(O)cc1)C(=O)O)CSSC[C@H](NC(=O)[C@H](Cc1ccc(O)cc1)NC(=O)[C@H](CCC(=O)O)NC3=O)C(=O)N2 [linaclotide] = 107
CC(C)(O)c1coc(S(=O)(=O)NC(=O)Nc2c3c(cc4c2CCC4)CCC3)c1 = 103
C#C[C@]1(O)CC[C@H]2[C@@H]3CCC4=CC(=O)CC[C@@H]4[C@H]3CC[C@@]21C = 110

Now examine the next entry.
Lab note: C=CC(=O)Nc1ccc2ncnc(Nc3ccc(OCc4cccc(F)c4)c(Cl)c3)c2c1 gave cell viability of 32.3
